# procedure.details: Pharmacokinetic study in rats after oral administration of baricitinib suspension
# Assay type: in vivo, Sprague Dawely rats
# measurement.setup: Sprague-Dawley, rat, plasma; male rats, oral 2 mg/kg suspension, fasted, mean ± SD
experimental.readout: AUC(0-inf)

Reported AUC(0-inf) for CCS(=O)(=O)N1CC(CC#N)(n2cc(-c3ncnc4[nH]ccc34)cn2)C1 [baricitinib, Baricitinib] : what is it?
223 ng·h/mL

---

# procedure.details: Pharmacokinetic study in rats after oral administration of baricitinib suspension
# Assay type: in vivo, Sprague Dawely rats
# measurement.setup: Sprague-Dawley, rat, plasma; male rats, oral 2 mg/kg suspension, fasted, mean ± SD
experimental.readout: half-life

Please look up its half-life: CCS(=O)(=O)N1CC(CC#N)(n2cc(-c3ncnc4[nH]ccc34)cn2)C1
2.24 h

Each recorded value in this set is attributed to paper PMC7180984.
